Recorded fold difference in affinity vs original values for a group of binders are listed next.
# tgt: T1, IL-1β (UniProt P01584 117-269)
# T1 construct: Antigen immobilised on the Biacore chip
# measurement protocol: Biacore, periplasmic extract
Write the number in fold without appending the unit.

[
  {
    "binder": "XPA23 light chain S93F (Fab, V domains shown) VH: EVQLLESGGGLVQPGGSLRLSCAASGFTFSKYFMFWVRQAPGKGLEWVSVISPSGGMTRYADSVKGRFTISRDNSKNTLYLQMNSLRAEDTAVYYCARVGYGGNSDYWGQGTLVTVSS VL: DIQMTQSPSSVSASVGDRLTIICRASQDINRWLAWYQQTPGNAPKLLIHSATSLQSGVPSRFSGSGSGTDFTLTINSLQPEDFATYYCQQADFFPLTFGGGTKVEIK",
    "value unit": "fold",
    "fold difference in affinity vs original": 1.32
  },
  {
    "binder": "XPA23 light chain S50T (Fab, V domains shown) VH: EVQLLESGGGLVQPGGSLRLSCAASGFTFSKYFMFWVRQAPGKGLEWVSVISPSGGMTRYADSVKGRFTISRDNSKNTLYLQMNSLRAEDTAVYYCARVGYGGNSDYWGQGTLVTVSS VL: DIQMTQSPSSVSASVGDRLTIICRASQDINRWLAWYQQTPGNAPKLLIHTATSLQSGVPSRFSGSGSGTDFTLTINSLQPEDFATYYCQQADSFPLTFGGGTKVEIK",
    "value unit": "fold",
    "fold difference in affinity vs original": 0.87
  },
  {
    "binder": "XPA23 light chain A51H (Fab, V domains shown) VH: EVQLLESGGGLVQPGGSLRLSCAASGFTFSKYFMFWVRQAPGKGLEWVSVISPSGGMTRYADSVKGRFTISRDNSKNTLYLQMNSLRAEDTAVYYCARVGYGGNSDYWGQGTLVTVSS VL: DIQMTQSPSSVSASVGDRLTIICRASQDINRWLAWYQQTPGNAPKLLIHSHTSLQSGVPSRFSGSGSGTDFTLTINSLQPEDFATYYCQQADSFPLTFGGGTKVEIK",
    "value unit": "fold",
    "fold difference in affinity vs original": 0.61
  }
]

Sure, the documented fold difference in affinity vs original for XPA23 light chain T52L (Fab, V domains shown) VH: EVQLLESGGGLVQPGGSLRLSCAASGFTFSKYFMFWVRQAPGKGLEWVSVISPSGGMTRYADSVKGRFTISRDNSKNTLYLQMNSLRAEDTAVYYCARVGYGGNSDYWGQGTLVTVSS VL: DIQMTQSPSSVSASVGDRLTIICRASQDINRWLAWYQQTPGNAPKLLIHSALSLQSGVPSRFSGSGSGTDFTLTINSLQPEDFATYYCQQADSFPLTFGGGTKVEIK is 0.78

Provenance of the data: patent US20110118131A1
